- PROTOCOL DESCRIPTION: activity coefficient (dimensionless); of the first substance listed, at infinite dilution; xn = mol fraction of the nth substance listed
- PROTOCOL CONDITIONS: 338.15 K; 101.33 kPa; Liquid; Chromatography; x1 = 0
Some compounds, each annotated with its measured activity coefficient.
Output: the number by itself.

Example entries begin here.
CCC(C)(C)OC [2-methoxy-2-methylbutane] + CCCCCCCCCCCCn1cc[n+](C)c1.O=S(=O)([N-]S(=O)(=O)C(F)(F)F)C(F)(F)F = 1.23
CCCc1ccccc1 [propylbenzene] + CCCCCCCCCCCCn1cc[n+](C)c1.O=S(=O)([N-]S(=O)(=O)C(F)(F)F)C(F)(F)F = 1.21

The record that follows has no activity coefficient shown yet.
Which value of activity coefficient has been reported for CO [methanol] + CCCCCCCCCCCCn1cc[n+](C)c1.O=S(=O)([N-]S(=O)(=O)C(F)(F)F)C(F)(F)F in the records?
1.15

* * *

Catalogue of activity coefficient readings, one per entry.
- PROTOCOL DESCRIPTION: activity coefficient (dimensionless); of the first substance listed, at infinite dilution; xn = mol fraction of the nth substance listed
- PROTOCOL CONDITIONS: 318.15 K; 101.33 kPa; Liquid; Chromatography; x1 = 0
Simply state the number, no unit and no words.

CCC(=O)OC [methyl propanoate] + CCCCCCCCCCCCn1cc[n+](C)c1.O=S(=O)([N-]S(=O)(=O)C(F)(F)F)C(F)(F)F = 0.531
CCCCCCCCC [nonane] + CCCCCCCCCCCCn1cc[n+](C)c1.O=S(=O)([N-]S(=O)(=O)C(F)(F)F)C(F)(F)F = 4.92
CCCCCCCCCC [decane] + CCCCCCCCCCCCn1cc[n+](C)c1.O=S(=O)([N-]S(=O)(=O)C(F)(F)F)C(F)(F)F = 5.82
CCc1ccccc1 [ethylbenzene] + CCCCCCCCCCCCn1cc[n+](C)c1.O=S(=O)([N-]S(=O)(=O)C(F)(F)F)C(F)(F)F = 0.911

What value of measured activity coefficient is listed for CCCO [propan-1-ol] + CCCCCCCCCCCCn1cc[n+](C)c1.O=S(=O)([N-]S(=O)(=O)C(F)(F)F)C(F)(F)F ?
1.45

Sample CCCC(C)=O [pentan-2-one] + CCCCCCCCCCCCn1cc[n+](C)c1.O=S(=O)([N-]S(=O)(=O)C(F)(F)F)C(F)(F)F — what was its activity coefficient?
0.421

* * *

- PROTOCOL DESCRIPTION: activity coefficient (dimensionless); of the first substance listed, at infinite dilution; xn = mol fraction of the nth substance listed
- PROTOCOL CONDITIONS: 358.15 K; 101.33 kPa; Liquid; Chromatography; x1 = 0
Here the recorded activity coefficient is given for each entry.
Enter a number only.

Check out these entries, answers already filled in.
C=CCCC [1-pentene] + CCCCCCCCCCCCn1cc[n+](C)c1.O=S(=O)([N-]S(=O)(=O)C(F)(F)F)C(F)(F)F = 2.04
CCCCCCCC [octane] + CCCCCCCCCCCCn1cc[n+](C)c1.O=S(=O)([N-]S(=O)(=O)C(F)(F)F)C(F)(F)F = 4.37
CCC(C)(C)OC [2-methoxy-2-methylbutane] + CCCCCCCCCCCCn1cc[n+](C)c1.O=S(=O)([N-]S(=O)(=O)C(F)(F)F)C(F)(F)F = 1.35

Need activity coefficient, item CCCCCCCCCC [decane] + CCCCCCCCCCCCn1cc[n+](C)c1.O=S(=O)([N-]S(=O)(=O)C(F)(F)F)C(F)(F)F
6.06

Query: activity coefficient; subject: C1CCCCCCC1 [cyclooctane] + CCCCCCCCCCCCn1cc[n+](C)c1.O=S(=O)([N-]S(=O)(=O)C(F)(F)F)C(F)(F)F
2.85
